// data source = the supplement of paper PMC10567573

Known protein stability index of a selection of variants
B1: FBF1 (parent)
chain: YQRPQDSEDMWGDEDFTFGAYQPT

Variants of: B1
Test method notes: protein stability index of a GFP-peptide fusion (GPS, HEK-293T) (PSI 1-6); higher = more stable;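 note: lentivirally expressed fusions sorted by FACS into six bins by GFP to DsRed ratio, PSI derived from sequencing read proportions per bin multiplied by bin number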
Condition info: c terminus: a fixed tail appended
Give the figure by itself; no unit, no explanation.

# example entries with known answers
YQRPQDSEDMWGDEDFTPGAYQPT [F18P]: 3.62
YQGPQDSEDMWGDEDFTFGAYQPT [R3G]: 3.4
YQRPQDSEDMWGDEDFTNGAYQPT [F18N]: 3.93
YQRPQRSEDMWGDEDFTFGAYQPT [D6R]: 2.04
YQRPQDSEDMWGWEDFTFGAYQPT [D13W]: 1.53

Given YQRPQDSEDMWGDEDFTFGAYQPK [T24K] , state its recorded protein stability index.
3.02

Same read-out for YQRPQDSEDMWCDEDFTFGAYQPT [G12C] ?
2.28

Another variant: YQHPQDSEDMWGDEDFTFGAYQPT [R3H]
3.49

Likewise for YQRPQDSEDMWGDEDFTFGAEQPT [Y21E] ?
3.75
